- measured-target: Glutamate receptor ionotropic, AMPA (Mus musculus) (UniProt P23819+P23818+Q9Z2W8+Q9Z2W9)
- Sequence (P23818 whole entry, looked up): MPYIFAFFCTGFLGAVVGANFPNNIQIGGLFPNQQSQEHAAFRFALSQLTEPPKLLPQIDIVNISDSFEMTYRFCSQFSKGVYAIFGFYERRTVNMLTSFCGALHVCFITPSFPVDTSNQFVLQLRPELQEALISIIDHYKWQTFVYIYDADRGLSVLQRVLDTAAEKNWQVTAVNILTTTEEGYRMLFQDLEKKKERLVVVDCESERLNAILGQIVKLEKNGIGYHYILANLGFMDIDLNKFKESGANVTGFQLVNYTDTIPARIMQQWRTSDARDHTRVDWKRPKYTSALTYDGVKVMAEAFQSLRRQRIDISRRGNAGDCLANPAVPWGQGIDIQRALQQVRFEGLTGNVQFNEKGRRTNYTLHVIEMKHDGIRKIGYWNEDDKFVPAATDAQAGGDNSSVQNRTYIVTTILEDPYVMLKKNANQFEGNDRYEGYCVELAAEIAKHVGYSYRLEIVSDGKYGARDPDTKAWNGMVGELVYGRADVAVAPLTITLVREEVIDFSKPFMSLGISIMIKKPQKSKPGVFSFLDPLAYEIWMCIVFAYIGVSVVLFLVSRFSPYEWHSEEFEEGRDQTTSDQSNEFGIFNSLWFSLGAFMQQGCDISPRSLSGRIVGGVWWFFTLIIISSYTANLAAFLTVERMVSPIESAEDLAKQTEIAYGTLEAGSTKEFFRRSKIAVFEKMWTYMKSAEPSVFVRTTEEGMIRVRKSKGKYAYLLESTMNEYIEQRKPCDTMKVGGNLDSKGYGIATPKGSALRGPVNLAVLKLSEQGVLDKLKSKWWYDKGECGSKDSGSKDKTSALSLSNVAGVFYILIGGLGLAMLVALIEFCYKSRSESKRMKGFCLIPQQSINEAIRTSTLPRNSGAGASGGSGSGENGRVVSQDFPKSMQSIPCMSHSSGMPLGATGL
- Sequence (P23819 whole entry, looked up): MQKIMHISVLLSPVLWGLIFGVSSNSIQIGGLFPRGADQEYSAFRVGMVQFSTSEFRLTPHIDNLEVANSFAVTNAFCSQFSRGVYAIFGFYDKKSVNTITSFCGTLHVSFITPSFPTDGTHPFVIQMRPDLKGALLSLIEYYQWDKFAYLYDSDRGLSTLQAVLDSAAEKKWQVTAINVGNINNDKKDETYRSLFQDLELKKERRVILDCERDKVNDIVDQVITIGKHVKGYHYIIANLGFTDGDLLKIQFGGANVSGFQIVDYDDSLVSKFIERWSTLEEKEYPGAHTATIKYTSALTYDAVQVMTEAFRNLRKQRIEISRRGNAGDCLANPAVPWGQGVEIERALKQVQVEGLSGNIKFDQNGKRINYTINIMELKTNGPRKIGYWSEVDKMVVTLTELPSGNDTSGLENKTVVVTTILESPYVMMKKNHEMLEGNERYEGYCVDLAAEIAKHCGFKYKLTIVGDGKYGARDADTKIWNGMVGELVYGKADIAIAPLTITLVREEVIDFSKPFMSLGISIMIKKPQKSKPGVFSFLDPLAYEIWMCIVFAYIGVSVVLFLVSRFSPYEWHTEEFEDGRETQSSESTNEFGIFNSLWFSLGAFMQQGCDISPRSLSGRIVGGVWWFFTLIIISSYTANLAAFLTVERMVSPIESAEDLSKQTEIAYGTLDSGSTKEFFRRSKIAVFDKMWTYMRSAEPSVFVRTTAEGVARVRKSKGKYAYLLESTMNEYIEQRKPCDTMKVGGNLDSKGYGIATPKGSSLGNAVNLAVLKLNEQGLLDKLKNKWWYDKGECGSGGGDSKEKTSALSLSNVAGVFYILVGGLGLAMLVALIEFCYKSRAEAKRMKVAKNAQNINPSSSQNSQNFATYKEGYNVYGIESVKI
- Sequence (Q9Z2W8 whole entry, looked up): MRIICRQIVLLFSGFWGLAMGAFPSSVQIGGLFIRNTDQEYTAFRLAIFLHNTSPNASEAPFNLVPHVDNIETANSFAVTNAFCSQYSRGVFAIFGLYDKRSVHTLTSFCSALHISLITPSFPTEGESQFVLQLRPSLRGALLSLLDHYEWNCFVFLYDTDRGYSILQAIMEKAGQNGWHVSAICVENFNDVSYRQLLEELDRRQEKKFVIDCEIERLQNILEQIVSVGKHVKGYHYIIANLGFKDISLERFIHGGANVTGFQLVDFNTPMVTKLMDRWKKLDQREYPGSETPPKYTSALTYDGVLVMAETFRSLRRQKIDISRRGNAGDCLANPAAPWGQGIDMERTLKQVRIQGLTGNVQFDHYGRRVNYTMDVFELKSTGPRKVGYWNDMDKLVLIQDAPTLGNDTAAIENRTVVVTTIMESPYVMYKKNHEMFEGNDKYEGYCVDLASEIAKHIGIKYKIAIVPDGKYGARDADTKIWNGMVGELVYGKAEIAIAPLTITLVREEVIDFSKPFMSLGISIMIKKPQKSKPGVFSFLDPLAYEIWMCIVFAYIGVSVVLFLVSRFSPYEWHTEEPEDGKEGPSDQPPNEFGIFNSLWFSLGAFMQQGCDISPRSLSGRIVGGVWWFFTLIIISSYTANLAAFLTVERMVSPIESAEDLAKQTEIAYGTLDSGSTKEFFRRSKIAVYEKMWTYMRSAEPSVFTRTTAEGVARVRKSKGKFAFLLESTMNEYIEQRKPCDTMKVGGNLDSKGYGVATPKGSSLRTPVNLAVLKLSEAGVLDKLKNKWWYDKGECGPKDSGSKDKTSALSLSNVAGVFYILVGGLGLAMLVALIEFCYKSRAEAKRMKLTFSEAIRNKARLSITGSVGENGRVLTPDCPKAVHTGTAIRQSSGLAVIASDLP
- Sequence (Q9Z2W9 whole entry, looked up): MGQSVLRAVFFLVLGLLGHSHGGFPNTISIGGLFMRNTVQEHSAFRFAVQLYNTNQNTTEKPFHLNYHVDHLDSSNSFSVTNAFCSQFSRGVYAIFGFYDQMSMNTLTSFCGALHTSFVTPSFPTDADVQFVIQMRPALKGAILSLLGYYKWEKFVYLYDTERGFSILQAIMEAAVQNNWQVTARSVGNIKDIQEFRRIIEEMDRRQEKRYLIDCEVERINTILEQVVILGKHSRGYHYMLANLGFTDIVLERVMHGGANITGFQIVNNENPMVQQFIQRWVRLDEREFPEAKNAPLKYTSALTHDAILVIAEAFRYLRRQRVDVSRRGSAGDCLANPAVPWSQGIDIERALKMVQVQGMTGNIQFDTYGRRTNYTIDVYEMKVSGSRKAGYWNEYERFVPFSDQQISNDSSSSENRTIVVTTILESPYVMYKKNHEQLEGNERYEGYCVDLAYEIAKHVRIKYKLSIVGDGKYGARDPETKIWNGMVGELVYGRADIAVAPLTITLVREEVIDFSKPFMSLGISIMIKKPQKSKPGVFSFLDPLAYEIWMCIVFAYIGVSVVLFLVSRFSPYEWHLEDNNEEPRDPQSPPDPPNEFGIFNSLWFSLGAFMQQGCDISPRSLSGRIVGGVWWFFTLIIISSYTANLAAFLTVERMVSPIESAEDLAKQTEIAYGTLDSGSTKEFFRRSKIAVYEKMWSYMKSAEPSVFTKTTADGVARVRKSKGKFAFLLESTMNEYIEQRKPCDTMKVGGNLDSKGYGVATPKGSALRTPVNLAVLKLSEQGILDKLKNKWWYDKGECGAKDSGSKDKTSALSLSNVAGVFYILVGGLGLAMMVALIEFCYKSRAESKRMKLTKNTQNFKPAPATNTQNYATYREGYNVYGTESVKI
- test-method-notes: In vivo anticonvulsant activity was measured as median effective dose required to prevent clonic phase of seizure in DBA/2 mice
- Type: functional, organism-based
readout-label: log10(ED50) (log10 of the value in µmol/kg)
The figures below represent log10 of ED50, where ED50 is stated in µmol/kg.

{"compound": "COc1cc2c(cc1OC)C(c1ccc(Br)cc1)=NN(C)C(=O)C2", "log10(ED50)": 1.80}

Ask | Indicate the recorded log10(ED50) value for this compound: COc1cc2c(O)nnc(-c3cccc(N)c3)c2cc1OC
Reply | 1.83

Ask | Indicate the recorded log10(ED50) value for this compound: COc1cc2c(cc1OC)C(c1ccc([N+](=O)[O-])cc1)=NN(C)C(=S)C2
Reply | 2.01

Ask | Indicate the recorded log10(ED50) value for this compound: COc1cc2c(cc1OC)C(c1ccc(Cl)cc1)=NN=C(S)C2
Reply | 1.92
